Numbers sourced from paper PMC11923649.

Tested on: MRC-5 lung fibroblasts
Experiment: MTS cytotoxicity assay, 72 h, MRC-5 fibroblasts
Format: cell-based, human
Conditions: Homo sapiens, MRC5, 72 h, normal fibroblasts, Table 1
Procedure: Based on the preliminary results and tests of a larger library of known triterpenoids, a small set of 2-substituted lupane and 18α-oleanane derivatives was designed and synthesized. As the first step, the cytotoxic activity of the synthesized derivatives was assessed using an MTS assay following 72 h of treatment (Table 1). Selected cell lines A549 (lung adenocarcinoma) and DU-145 (prostate cancer) are both dependent on Hh signaling. […]
// values below are reported IC50
Metric name: IC50 (µM)

INSERT INTO assay_data (compound, comparison_symbol, measured_result) VALUES
  ('C=C(C)[C@@H]1CC[C@]2(C(=O)O)CC[C@]3(C)C(CCC4[C@@]5(C)C=C(c6ccoc6)C(=O)C(C)(C)C5CC[C@]43C)C12 (stereo partly drawn) [Compound 11b]', '=', 24),
  ('CC1(C)C(=O)C(c2ccc3[nH]ccc3c2)=C[C@@]2(C)C1CC[C@]1(C)C2CCC2C3[C@H]4OC[C@@]3(CCC4(C)C)CC[C@]21C (stereo partly drawn)', '>', 50),
  ('C=C(C)[C@@H]1CC[C@]2(C(=O)O)CC[C@]3(C)[C@H](CC[C@@H]4[C@@]5(C)CC[C@H](O)C(C)(C)[C@@H]5CC[C@]43C)[C@@H]12 [Betulinic acid 5, betulinic acid, reference compound]', '=', 28);

----------
tested on: BJ human skin fibroblasts; test: MTS cytotoxicity assay, 72 h, BJ fibroblasts; assay type: cell-based; conditions: Homo sapiens, Skin fibroblast, normal fibroblasts, Table 1
// values below are reported IC50
Metric name: IC50 (µM)

INSERT INTO measurements (compound, comparison_symbol, measured_result) VALUES
  ('C=C(C)[C@@H]1CC[C@]2(C(=O)O)CC[C@]3(C)C(CCC4[C@@]5(C)C=C(c6ccc7c(c6)OCCO7)C(=O)C(C)(C)C5CC[C@]43C)C12 (stereo partly drawn) [Compound 11j]', '>', 50),
  ('C=C(C)[C@@H]1CC[C@]2(C(=O)O)CC[C@]3(C)[C@H](CC[C@@H]4[C@@]5(C)CC[C@H](O)C(C)(C)[C@@H]5CC[C@]43C)[C@@H]12 [Betulinic acid 5, betulinic acid, reference compound]', '=', 24),
  ('C=C(C)[C@@H]1CC[C@]2(C(=O)O)CC[C@]3(C)C(CCC4[C@@]5(C)C=C(c6ccc7cn[nH]c7c6)C(=O)C(C)(C)C5CC[C@]43C)C12 (stereo partly drawn) [Compound 11n]', '=', 35),
  ('C=C(C)[C@@H]1CC[C@]2(C(=O)O)CC[C@]3(C)C(CCC4[C@@]5(C)C=C(c6cncnc6)C(=O)C(C)(C)C5CC[C@]43C)C12 (stereo partly drawn) [Compound 11i]', '>', 50),
  ('CC1(C)C(=O)C(c2cncc3ccccc23)=C[C@@]2(C)C1CC[C@]1(C)C2CCC2C3[C@H]4OC[C@@]3(CCC4(C)C)CC[C@]21C (stereo partly drawn) [Compound 4l]', '>', 50),
  ('C=C(C)[C@@H]1CC[C@]2(C(=O)O)CC[C@]3(C)C(CCC4[C@@]5(C)C=C(c6ccoc6)C(=O)C(C)(C)C5CC[C@]43C)C12 (stereo partly drawn) [Compound 11b]', '=', 37);

----------
// values below are reported efflux ratio
tested on: MDR1; assay: Caco-2 permeability assay; assay type: in vitro ADME; conditions: human, Caco-2; B–A / A–B
Metric name: efflux ratio

INSERT INTO measurements (compound, metric_name, measured_result) VALUES
  ('C=C(C)[C@@H]1CC[C@]2(C(=O)O)CC[C@]3(C)C(CCC4[C@@]5(C)C=C(c6ccoc6)C(=O)C(C)(C)C5CC[C@]43C)C12 (some centres unmarked) [Compound 11b]', 'efflux ratio', 1.77),
  ('C=C(C)[C@@H]1CC[C@]2(C(=O)O)CC[C@]3(C)C(CCC4[C@@]5(C)C=C(c6ccco6)C(=O)C(C)(C)C5CC[C@]43C)C12 (some centres unmarked) [Compound 11a]', 'efflux ratio', 2.33);

----------
Assay: MDCK-MDR1 permeability assay
Assay type: in vitro ADME
Conditions: dog, MDCK-MDR1; A–B; cm/s; read-out: MDCK-MDR1 Papp (×10^−6)
Source text: The Parallel Artificial Membrane Permeability Assay (PAMPA) has emerged as a primary screen for determining passive transcellular permeability. […] The Caco-2 and MDCK-MDR1 permeability assays are established models of intestinal[37] and blood-brain barriers, respectively.[38]
Metric name: Papp A→B (×10⁻⁶ cm/s)

INSERT INTO assay_data (compound, metric_name, measured_result) VALUES
  ('C=C(C)[C@@H]1CC[C@]2(C(=O)O)CC[C@]3(C)C(CCC4[C@@]5(C)C=C(c6ccco6)C(=O)C(C)(C)C5CC[C@]43C)C12 (some centres unmarked) [Compound 11a]', 'Papp A→B', 9.15),
  ('C=C(C)[C@@H]1CC[C@]2(C(=O)O)CC[C@]3(C)C(CCC4[C@@]5(C)C=C(c6ccoc6)C(=O)C(C)(C)C5CC[C@]43C)C12 (some centres unmarked) [Compound 11b]', 'Papp A→B', 1.85);

----------
test: Parallel Artificial Membrane Permeability Assay (PAMPA); format: in vitro ADME; conditions: read-out: PAMPA log Pe (converted)
// values below are reported Papp
Metric name: Papp (×10⁻⁶ cm/s)

INSERT INTO results (compound, measure_unit, measured_result) VALUES
  ('C=C(C)[C@@H]1CC[C@]2(C(=O)O)CC[C@]3(C)C(CCC4[C@@]5(C)C=C(c6ccoc6)C(=O)C(C)(C)C5CC[C@]43C)C12 (some centres unmarked) [Compound 11b]', '×10⁻⁶ cm/s', 0.0162),
  ('C=C(C)[C@@H]1CC[C@]2(C(=O)O)CC[C@]3(C)C(CCC4[C@@]5(C)C=C(c6ccco6)C(=O)C(C)(C)C5CC[C@]43C)C12 (some centres unmarked) [Compound 11a]', '×10⁻⁶ cm/s', 0.0158);

----------
system: K562 (chronic myelogenous leukemia); assay: MTS cytotoxicity assay, 72 h, K562; assay type: cell-based; conditions: Homo sapiens, full Table S1
// values below are reported IC50
Metric name: IC50

INSERT INTO measurements (compound, measured_result) VALUES
  ('C=C(C)[C@@H]1CC[C@]2(C(=O)O)CC[C@]3(C)C(CCC4[C@@]5(C)C=C(c6ccc7cn[nH]c7c6)C(=O)C(C)(C)C5CC[C@]43C)C12 (stereo partly drawn) [Compound 11n]', '22.3 µM'),
  ('C=C(C)[C@@H]1CC[C@]2(C(=O)OCc3ccccc3)CC[C@]3(C)C(CCC4[C@@]5(C)C=C(c6ccoc6)C(=O)C(C)(C)C5CC[C@]43C)C12 (stereo partly drawn) [Compound 10b]', '> 50 µM'),
  ('C=C(C)[C@@H]1CC[C@]2(C(=O)OCc3ccccc3)CC[C@]3(C)C(CCC4[C@@]5(C)C=C(c6ccc7cn[nH]c7c6)C(=O)C(C)(C)C5CC[C@]43C)C12 (stereo partly drawn) [Compound 10n]', '> 50 µM'),
  ('CC1(C)C(=O)C(c2ccco2)=C[C@@]2(C)C1CC[C@]1(C)C2CCC2C3[C@H]4OC[C@@]3(CCC4(C)C)CC[C@]21C (stereo partly drawn)', '> 50 µM'),
  ('CC1(C)C(=O)C(c2ccc3cn[nH]c3c2)=C[C@@]2(C)C1CC[C@]1(C)C2CCC2C3[C@H]4OC[C@@]3(CCC4(C)C)CC[C@]21C (stereo partly drawn)', '22.5 µM'),
  ('CC1(C)C(=O)C(c2ccoc2)=C[C@@]2(C)C1CC[C@]1(C)C2CCC2C3[C@H]4OC[C@@]3(CCC4(C)C)CC[C@]21C (stereo partly drawn)', '> 50 µM');

----------
test system: BJ human skin fibroblasts; assay: MTS cytotoxicity assay, 72 h, BJ fibroblasts; format: cell-based; conditions: Homo sapiens, Skin fibroblast, normal fibroblasts, Table 1
Metric name: IC50

INSERT INTO measurements (compound, measured_result) VALUES
  ('C=C(C)[C@@H]1CC[C@]2(C(=O)O)CC[C@]3(C)C(CCC4[C@@]5(C)C=C(c6ccncc6)C(=O)C(C)(C)C5CC[C@]43C)C12 (stereo partly drawn) [Compound 11h]', '> 50 µM'),
  ('C=C(C)[C@@H]1CC[C@]2(C(=O)O)CC[C@]3(C)C(CCC4[C@@]5(C)C=C(c6cncc7ccccc67)C(=O)C(C)(C)C5CC[C@]43C)C12 (stereo partly drawn) [Compound 11l]', '> 50 µM'),
  ('CC1(C)C(=O)C(c2cccnc2)=C[C@@]2(C)C1CC[C@]1(C)C2CCC2C3[C@H]4OC[C@@]3(CCC4(C)C)CC[C@]21C (stereo partly drawn) [Compound 4g]', '> 50 µM');

----------
// values below are reported pIC50
system: DU-145 (prostate cancer); assay: MTS cytotoxicity assay, 72 h, DU-145; format: cell-based, human; conditions: Homo sapiens, DU-145, 72 h, Table 1
pIC50: −log10 of the molar value.
Metric name: pIC50

INSERT INTO assay_data (molecule, measured_result) VALUES
  ('CC1(C)C(=O)C(c2ccc3[nH]ccc3c2)=C[C@@]2(C)C1CC[C@]1(C)C2CCC2C3[C@H]4OC[C@@]3(CCC4(C)C)CC[C@]21C (stereo partly drawn) [Compound 4m]', 4.59),
  ('CC1(C)C(=O)C(c2ccc3cn[nH]c3c2)=C[C@@]2(C)C1CC[C@]1(C)C2CCC2C3[C@H]4OC[C@@]3(CCC4(C)C)CC[C@]21C (stereo partly drawn) [Compound 4n]', 4.62),
  ('C=C(C)[C@@H]1CC[C@]2(C(=O)O)CC[C@]3(C)C(CCC4[C@@]5(C)C=C(c6ccc7cn[nH]c7c6)C(=O)C(C)(C)C5CC[C@]43C)C12 (stereo partly drawn) [Compound 11n]', 5.08),
  ('CC1(C)C(=O)C(c2cccnc2)=C[C@@]2(C)C1CC[C@]1(C)C2CCC2C3[C@H]4OC[C@@]3(CCC4(C)C)CC[C@]21C (stereo partly drawn) [Compound 4g]', 4.37),
  ('C=C(C)[C@@H]1CC[C@]2(C(=O)O)CC[C@]3(C)C(CCC4[C@@]5(C)C=C(c6ccc7c(c6)OCCO7)C(=O)C(C)(C)C5CC[C@]43C)C12 (stereo partly drawn) [Compound 11j]', 5.15),
  ('CC1(C)C(=O)C(c2cncc3ccccc23)=C[C@@]2(C)C1CC[C@]1(C)C2CCC2C3[C@H]4OC[C@@]3(CCC4(C)C)CC[C@]21C (stereo partly drawn) [Compound 4l]', 4.49),
  ('C=C(C)[C@@H]1CC[C@]2(C(=O)O)CC[C@]3(C)C(CCC4[C@@]5(C)C=C(c6cncc7ccccc67)C(=O)C(C)(C)C5CC[C@]43C)C12 (stereo partly drawn) [Compound 11l]', 5.08),
  ('C=C(C)[C@@H]1CC[C@]2(C(=O)O)CC[C@]3(C)C(CCC4[C@@]5(C)C=C(c6cccnc6)C(=O)C(C)(C)C5CC[C@]43C)C12 (stereo partly drawn) [Compound 11g]', 4.96),
  ('C=C(C)[C@@H]1CC[C@]2(C(=O)O)CC[C@]3(C)[C@H](CC[C@@H]4[C@@]5(C)CC[C@H](O)C(C)(C)[C@@H]5CC[C@]43C)[C@@H]12 [Betulinic acid 5, betulinic acid, reference compound]', 5.02);
